# ASSAYED_SYSTEM: T1, recombinant mouse α5β1 integrin (mouse, UniProt P11688 45-999; P09055 21-728)
# T1 construct: bought recombinant heterodimer (R&D Systems cat. 7728-A5) coated on the plate; also called rm-α5β1
# ASSAY_NAME: ELISA, coated integrin, supernatant 1:10
MEASURED_ENDPOINT: Absorbance 450 nm (A450)
Give the value in A450 but do not write A450 after it.

Solved cases below.
1. A-14G08 (antibody, V domains shown, mouse hybridoma supernatant) VH: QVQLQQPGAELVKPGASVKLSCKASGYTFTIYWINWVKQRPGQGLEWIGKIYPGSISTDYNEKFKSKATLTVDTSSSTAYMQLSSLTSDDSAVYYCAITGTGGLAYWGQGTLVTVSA VL: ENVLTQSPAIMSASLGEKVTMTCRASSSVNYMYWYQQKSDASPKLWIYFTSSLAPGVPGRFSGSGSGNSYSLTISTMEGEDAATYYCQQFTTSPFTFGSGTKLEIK = 0.11
2. A-15C03 (antibody, part only; not given: light chain, V domains shown, part only) VH: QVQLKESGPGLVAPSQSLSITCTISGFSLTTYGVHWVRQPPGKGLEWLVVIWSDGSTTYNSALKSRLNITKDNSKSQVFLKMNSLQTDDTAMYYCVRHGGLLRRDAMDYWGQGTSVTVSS = 0.0709
3. C-8G11 (antibody, V domains shown, mouse hybridoma supernatant) VH: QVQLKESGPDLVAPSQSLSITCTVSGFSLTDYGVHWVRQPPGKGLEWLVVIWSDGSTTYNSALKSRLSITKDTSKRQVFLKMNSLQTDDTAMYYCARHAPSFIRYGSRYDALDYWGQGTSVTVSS VL: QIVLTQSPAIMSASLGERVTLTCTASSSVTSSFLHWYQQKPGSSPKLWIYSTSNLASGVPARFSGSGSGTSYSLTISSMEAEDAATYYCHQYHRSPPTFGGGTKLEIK = 0.0872

Task item: Can you look up the measured Absorbance 450 nm of A-7D06 (antibody, V domains shown, mouse hybridoma supernatant) VH: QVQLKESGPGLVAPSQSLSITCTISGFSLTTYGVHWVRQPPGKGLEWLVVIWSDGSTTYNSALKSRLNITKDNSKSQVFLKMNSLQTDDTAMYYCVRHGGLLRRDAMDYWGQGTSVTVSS VL: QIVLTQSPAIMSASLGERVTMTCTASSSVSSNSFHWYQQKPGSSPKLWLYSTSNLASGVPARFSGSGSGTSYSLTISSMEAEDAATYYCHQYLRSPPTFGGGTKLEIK for me?
Reply: 0.0755

Task item: Can you look up the measured Absorbance 450 nm of A-15H11 (antibody, V domains shown, mouse hybridoma supernatant) VH: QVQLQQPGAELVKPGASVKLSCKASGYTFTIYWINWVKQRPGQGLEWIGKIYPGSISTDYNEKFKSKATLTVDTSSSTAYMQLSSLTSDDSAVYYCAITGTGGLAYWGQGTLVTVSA VL: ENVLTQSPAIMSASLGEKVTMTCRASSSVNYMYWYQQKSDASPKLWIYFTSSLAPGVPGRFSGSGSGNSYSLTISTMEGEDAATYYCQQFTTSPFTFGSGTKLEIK for me?
Reply: 0.0799

Where these numbers come from: patent US20240279345A1
